Reference source for all entries: patent US6956040B2

Assignment: determine reported MIC for the given compounds.
- System: S. pyogenes 19615
- ASSAY_DETAILS: MIC, agar incorporation method
- Type: cell-based, Streptococcus pyogenes
- CONDITION: S. pyogenes 19615; agar incorporation
Give bare numbers, in µg/mL.

Worked cases, MIC given:
1) CC(=O)NC[C@H]1CN(c2ccc(N3CCN(Cc4cccn4C)CC3)c(F)c2)C(=O)O1 | 1
2) CC(=O)NC[C@H]1CN(c2ccc(N3CCC(N(C)Cc4ccc([N+](=O)[O-])o4)CC3)c(F)c2)C(=O)O1 | 0.125
3) CC(=O)NC[C@H]1CN(c2ccc(N3CC4C(C3)C4N(C)C(=O)c3ccsc3)c(F)c2)C(=O)O1 (some centres unmarked) | 1
4) CC(=O)NC[C@H]1CN(c2ccc(N3C[C@@H]4[C@H](C3)[C@H]4N(C)Cc3ccc([N+](=O)[O-])s3)c(F)c2)C(=O)O1 | 2
5) CC(=O)NC[C@H]1CN(c2ccc(N3CCN(C(=O)c4ccc(Br)o4)CC3)c(F)c2)C(=O)O1 | 2
6) CC(=O)NC[C@H]1CN(c2ccc(N3CC4C(CN(C)Cc5ccc([N+](=O)[O-])o5)C4C3)c(F)c2)C(=O)O1 (some centres unmarked) | 0.125

For every item in the list below, what is its measured MIC?
1. CC(=O)NC[C@H]1CN(c2ccc(N3CCN(C(=O)C(=O)c4cccs4)CC3)c(F)c2)C(=O)O1
2. CC(=O)NC[C@H]1CN(c2ccc(N3CC4C(C3)C4N(C)C(=O)Cc3cccs3)c(F)c2)C(=O)O1 (some centres unmarked)
3. CC(=O)NC[C@H]1CN(c2ccc(N3CCN(Cc4ccc([N+](=O)[O-])o4)CC3)c(F)c2)C(=O)O1.O=C(O)CC(O)(CC(=O)O)C(=O)O
4. CC(=O)NC[C@H]1CN(c2ccc(N3CCC(N(C)C(=O)c4ccc([N+](=O)[O-])o4)CC3)c(F)c2)C(=O)O1
5. CC(=O)NC[C@H]1CN(c2ccc(N3CCN(Cc4ccc([N+](=O)[O-])s4)CC3)c(F)c2)C(=O)O1
6. CC(=O)NC[C@H]1CN(c2ccc(N3CCN(Cc4ccc([N+](=O)[O-])o4)CC3)c(F)c2)C(=O)O1

1: 0.5; 2: 2; 3: 1; 4: 0.5; 5: 1; 6: 1

---

- Tested on: E. faecalis 29212
- ASSAY_DETAILS: MIC, agar incorporation method
- Format: cell-based, Enterococcus faecalis
- CONDITION: E. faecalis 29212; agar incorporation
READOUT_TYPE: MIC (µg/mL)
One number for each entry, in µg/mL.

1. CC(=O)NC[C@H]1CN(c2ccc(N3C[C@@H]4[C@H](C3)[C@H]4N(C)Cc3ccc([N+](=O)[O-])s3)c(F)c2)C(=O)O1 | 1
2. CC(=O)NC[C@H]1CN(c2ccc(N3CCN(Cc4cc(Br)cs4)CC3)c(F)c2)C(=O)O1 | 2
3. COC(=O)Cc1ccc(NC(=O)ON=Cc2ccc(CN3CCN(c4ccc(N5C[C@H](CNC(C)=O)OC5=O)cc4F)CC3)o2)cc1 | 8
4. CC(=O)NC[C@H]1CN(c2ccc(N3CCC(N(C)Cc4ccc([N+](=O)[O-])s4)CC3)c(F)c2)C(=O)O1 | 4
5. CC(=O)NC[C@H]1CN(c2ccc(N3C[C@@H]4[C@@H](CN(C)Cc5ccc([N+](=O)[O-])s5)[C@@H]4C3)c(F)c2)C(=O)O1 | 2
6. CC(=O)NC[C@H]1CN(c2ccc(N3CCN(Cc4ccc([N+](=O)[O-])s4)CC3)c(F)c2)C(=O)O1 | 8
7. CC(=O)NC[C@H]1CN(c2ccc(N3CCN(C(=O)c4ccoc4)CC3)c(F)c2)C(=O)O1 | 1
8. CC(=O)NC[C@H]1CN(c2ccc(N3CCN(Cc4ccc(C=NN)o4)CC3)c(F)c2)C(=O)O1 | 8

Please go through the list and note MIC for each compound.
1. CC(=O)NC[C@H]1CN(c2ccc(N3CCN(C(=O)c4ccc([N+](=O)[O-])o4)CC3)c(F)c2)C(=O)O1
2. CC(=O)NC[C@H]1CN(c2ccc(N3CCN(Cc4cccs4)CC3)c(F)c2)C(=O)O1
3. CC(=O)NC[C@H]1CN(c2ccc(N3CC4C(C3)C4N(C)Cc3ccc(C=O)o3)c(F)c2)C(=O)O1 (some centres unmarked)
4. CC(=O)NC[C@H]1CN(c2ccc(N3CCN(C(=O)c4ccco4)CC3)c(F)c2)C(=O)O1
5. CC(=O)NC[C@H]1CN(c2ccc(N3CCC(N(C)C(=O)c4ccc([N+](=O)[O-])o4)CC3)c(F)c2)C(=O)O1
6. CC(=O)NC[C@H]1CN(c2ccc(N3CCN(C(=O)c4ccc(Br)o4)CC3)c(F)c2)C(=O)O1

[1, 8, 8, 2, 0.25, 2]

---

Hi there, I'd appreciate the recorded MIC for every entry that follows.
- System: E. faecalis 29212
- ASSAY_DETAILS: MIC, agar incorporation method
- Assay type: cell-based, Enterococcus faecalis
- CONDITION: E. faecalis 29212; agar incorporation
Just so you know, I need the unit written after the number.

1) CC(=O)NC[C@H]1CN(c2ccc(N3C[C@@H]4[C@@H](CN(C)C(=O)Cc5cccs5)[C@@H]4C3)c(F)c2)C(=O)O1 | 4 µg/mL
2) CC(=O)NC[C@H]1CN(c2ccc(N3CC4C(C3)C4N(C)C(=O)Cc3cccs3)c(F)c2)C(=O)O1 (stereo partly drawn) | 4 µg/mL
3) CC(=O)NC[C@H]1CN(c2ccc(N3CCN(Cc4ccc([N+](=O)[O-])o4)CC3)c(F)c2)C(=O)O1 | 2 µg/mL
4) CC(=O)NC[C@H]1CN(c2ccc(N3CC4C(C3)C4N(C)C(=O)c3ccsc3)c(F)c2)C(=O)O1 (stereo partly drawn) | 8 µg/mL

Each of the following entries comes with a recorded value; kindly state MIC for each.
1. CC(=O)NC[C@H]1CN(c2ccc(N3CCN(Cc4ccc([N+](=O)[O-])o4)CC3)c(F)c2)C(=O)O1.Cl
2. CC(=O)NC[C@H]1CN(c2ccc(N3CCN(C(=O)C(=O)c4cccs4)CC3)c(F)c2)C(=O)O1
3. CC(=O)NC[C@H]1CN(c2ccc(N3CCN(Cc4ccc(Cl)s4)CC3)c(F)c2)C(=O)O1
4. CC(=O)NC[C@H]1CN(c2ccc(N3C[C@@H]4[C@H](C3)[C@H]4N(C)C(=O)c3ccc(Br)o3)c(F)c2)C(=O)O1
5. CC(=O)NC[C@H]1CN(c2ccc(N3CCN(Cc4ccc(Br)s4)CC3)c(F)c2)C(=O)O1
6. CC(=O)NC[C@H]1CN(c2ccc(N3CCN(Cc4cccn4C)CC3)c(F)c2)C(=O)O1
7. CC(=O)NC[C@H]1CN(c2ccc(N3CCN(Cc4ccc(C=O)o4)CC3)c(F)c2)C(=O)O1

2 µg/mL
2 µg/mL
8 µg/mL
4 µg/mL
2 µg/mL
8 µg/mL
8 µg/mL

The compound listed as CC(=O)NC[C@H]1CN(c2ccc(N3CCN(C(=O)c4ccc([N+](=O)[O-])s4)CC3)c(F)c2)C(=O)O1.Cl shows MIC equal to 1 µg/mL

---

- System: MRSA 562
- ASSAY_DETAILS: MIC, agar incorporation method
- Format: cell-based, Staphylococcus aureus
- CONDITION: MRSA 562; agar incorporation; Table 1
READOUT_TYPE: MIC

1. CC(=O)NC[C@H]1CN(c2ccc(N3CCN(Cc4cccs4)CC3)c(F)c2)C(=O)O1 | 8 µg/mL
2. CC(=O)NC[C@H]1CN(c2ccc(N3CCN(Cc4cccn4C)CC3)c(F)c2)C(=O)O1 | 4 µg/mL
3. CC(=O)NC[C@H]1CN(c2ccc(N3CCN(C(=O)c4ccc([N+](=O)[O-])s4)CC3)c(F)c2)C(=O)O1.Cl | <0.1 µg/mL

Shift focus to the following entry.
Entry CC(=O)NC[C@H]1CN(c2ccc(N3CCC(N(C)C(=O)c4ccc([N+](=O)[O-])o4)CC3)c(F)c2)C(=O)O1 ; MIC = <0.1 µg/mL

---

- System: MRSA 33
- ASSAY_DETAILS: MIC, agar incorporation method
- Format: cell-based, Staphylococcus aureus
- CONDITION: MRSA 33; agar incorporation
- Experimental: The compounds of the invention display antibacterial activity when tested by the agar incorporation method. […] Briefly, the compounds were dissolved in DMSO and doubling dilution of the compounds were incorporated into Meuller Hilton agar before solidification. […] The concentration showing no growth of the inoculated culture was recorded as the MIC. […]
Task for the reader: assign each of the following molecules its reported MIC.
One number for each entry, in µg/mL.

1. CC(=O)NC[C@H]1CN(c2ccc(N3C[C@@H]4[C@H](C3)[C@H]4N(C)C(=O)c3ccc(Br)o3)c(F)c2)C(=O)O1 [Compound No. 33] | 4

Count: 6. Required value per item: MIC.
1. CC(=O)NC[C@H]1CN(c2ccc(N3CCC(N(C)Cc4ccc([N+](=O)[O-])o4)CC3)c(F)c2)C(=O)O1 [Compound No. 50]
2. CC(=O)NC[C@H]1CN(c2ccc(N3CCN(Cc4ccc([N+](=O)[O-])s4)CC3)c(F)c2)C(=O)O1 [Compound No. 23]
3. CC(=O)NC[C@H]1CN(c2ccc(N3CC4C(C3)C4N(C)C(=O)c3ccoc3)c(F)c2)C(=O)O1 (stereo partly shown) [Compound No. 32]
4. CC(=O)NC[C@H]1CN(c2ccc(N3CC4C(C3)C4N(C)C(=O)Cc3cccs3)c(F)c2)C(=O)O1 (stereo partly shown) [Compound No. 71]
5. CC(=O)NC[C@H]1CN(c2ccc(N3CCN(C(=O)c4ccc(Br)o4)CC3)c(F)c2)C(=O)O1 [Compound No. 04]
6. CC(=O)NC[C@H]1CN(c2ccc(N3CCN(Cc4cccs4)CC3)c(F)c2)C(=O)O1 [Compound No. 12]

1: 1; 2: 8; 3: 8; 4: 4; 5: 2; 6: 8
